Tested on: ER-alpha MCF7
Assay: ER-alpha MCF7 HCS EC50; stated as measured by in vitro cell proliferation assays of Examples 902 and 903
Type: cell-based
Settings: Homo sapiens, MCF7, MCF7 cells; Table 2
EC50 under 0.2 nM gets TRUE, anything at or over 0.2 nM gets FALSE.

{"columns": ["smiles-notation", "group"],
 "data": [
  ["C[C@@H]1Cc2c([nH]c3ccc(F)cc23)[C@@H](c2c(F)cc(OC3CN(CCCF)C3)cc2F)N1CC(F)(F)F", "FALSE"],
  ["CNS(=O)(=O)N1[C@H](c2ccc(OCCN3CC(CF)C3)cc2)c2[nH]c3ccccc3c2C[C@H]1C", "FALSE"],
  ["C[C@@H]1Cc2c([nH]c3ccccc23)[C@H](c2ccc(OCCN3CC(CF)C3)cc2)N1S(C)(=O)=O", "FALSE"],
  ["C[C@@H]1Cc2c([nH]c3ccccc23)[C@@H](c2c(F)cc(OC3CN(CCCF)C3)cc2F)N1C(=O)C1(F)CCC1", "FALSE"],
  ["C[C@@H]1Cc2c([nH]c3ccccc23)[C@@H](c2ccc(OC3CN(CCCF)C3)cc2C#N)N1CC(C)(C)F", "FALSE"],
  ["C[C@H]1Cc2c([nH]c3ccc(F)cc23)[C@H](c2c(F)cc(NC3CN(CCCF)C3)cc2F)N1S(C)(=O)=O", "FALSE"],
  ["C[C@@H]1Cc2c([nH]c3ccccc23)[C@@H](c2c(F)cc(OC3CN(CC4CCC(F)(F)CC4)C3)cc2F)N1CC(C)(C)F", "FALSE"],
  ["C[C@@H]1Cc2c([nH]c3ccccc23)[C@@H](c2c(F)cc(OCCN3CC(CF)C3)cc2F)N1C(=O)C1CNC1", "FALSE"],
  ["CCCCCN1CC(Oc2cc(F)c([C@@H]3c4[nH]c5ccccc5c4C[C@@H](C)N3CC(C)(C)F)c(F)c2)C1", "FALSE"],
  ["C[C@@H]1Cc2c([nH]c3ccccc23)[C@@H](c2ccc(OCCN3CC(CF)C3)cc2)N1C[C@@](C)(F)CO", "TRUE"],
  ["C[C@@H]1Cc2c([nH]c3ccccc23)[C@@H](c2c(F)cc(OC[C@H](C)N3CC(C(F)F)C3)cc2F)N1CC(C)(C)F", "FALSE"],
  ["C[C@@H]1Cc2c([nH]c3ccccc23)[C@@H](c2c(F)cc(OCCN3CC(CF)C3)cc2F)N1CC(F)F", "FALSE"],
  ["C[C@@H]1Cc2c([nH]c3ccccc23)[C@@H](c2c(F)cc(SC3CN(CCCF)C3)cc2F)N1CC(C)(C)F", "FALSE"],
  ["C[C@@H]1Cc2c([nH]c3ccccc23)[C@@H](c2c(F)cc(NC3CN(CCCF)C3)cc2F)N1CC(F)(F)F", "FALSE"],
  ["C[C@@H]1Cc2c([nH]c3ccc(F)cc23)[C@@H](c2c(F)cc(NC3CN(CCCF)C3)cc2F)N1S(C)(=O)=O", "TRUE"],
  ["C[C@@H]1Cc2c([nH]c3ccccc23)[C@@H](c2c(F)cc(OC[C@H](C)N3CCCC3)cc2F)N1CC(C)(C)F", "TRUE"],
  ["C[C@H]1Cc2c([nH]c3ccc(F)cc23)[C@H](c2c(F)cc(OCCN3CC(CF)C3)cc2F)N1CC(F)(F)F", "FALSE"],
  ["C[C@H]1Cc2c([nH]c3ccc(F)cc23)[C@H](c2c(F)cc(OC3CN(CCCF)C3)cc2F)N1C[C@](C)(F)CO", "FALSE"],
  ["C[C@@H]1Cc2c([nH]c3ccccc23)[C@@H](c2c(F)cc(OC3CN(CCCF)C3)cc2F)N1C[C@](C)(F)CO", "TRUE"],
  ["C[C@@H]1Cc2c([nH]c3ccccc23)[C@@H](c2ccc(NC3CN(CCCF)C3)cc2F)N1C[C@](C)(F)CO", "TRUE"],
  ["C[C@@H]1Cc2c([nH]c3cccc(F)c23)[C@@H](c2c(F)cc(OCCN3CC(CF)C3)cc2F)N1CC(C)(C)F", "FALSE"],
  ["C[C@@H]1Cc2c([nH]c3ccccc23)[C@@H](c2cc(F)c(OC3CN(CCCF)C3)c(F)c2)N1CC(C)(C)F", "FALSE"],
  ["C[C@H](COc1cc(F)c([C@@H]2c3[nH]c4ccccc4c3C[C@@H](C)N2CC(C)(C)F)c(F)c1)N1CCCC1", "TRUE"],
  ["C[C@@H]1Cc2c([nH]c3ccccc23)[C@@H](c2c(F)cc(NC3CN(CCCF)C3)cc2F)N1C[C@@](C)(F)CO", "TRUE"],
  ["C=CCN1CC(Oc2cc(F)c([C@@H]3c4[nH]c5ccccc5c4C[C@@H](C)N3CC(C)(C)F)c(F)c2)C1", "TRUE"],
  ["C[C@@H]1Cc2c([nH]c3ccccc23)[C@H](c2ccc(NC3CN(CCCF)C3)cc2)N1S(C)(=O)=O", "FALSE"]
]}
